For each record, write down the corresponding protein stability index.
B1: TRIM15 (parent)
chain: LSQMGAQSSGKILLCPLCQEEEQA

# Variants of: B1
# Protocol: protein stability index of a GFP-peptide fusion (GPS, HEK-293T) (PSI 1-6); higher = more stable;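 also: lentivirally expressed fusions sorted by FACS into six bins by GFP to DsRed ratio, PSI derived from sequencing read proportions per bin multiplied by bin number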
# Test context: c terminus: a fixed tail appended
Answers are plain numbers.

change=P16Y observable="protein stability index" obs_value=2.97
change=S2P observable="protein stability index" obs_value=4.26
change=Q23V observable="protein stability index" obs_value=3.11
change=L14D observable="protein stability index" obs_value=4.72
change=E20R observable="protein stability index" obs_value=3.77

// for each variant in input: emit protein stability index
1. S9K
2. L17D
3. G5V

1. 3.78
2. 4.97
3. 3.13
